- study_system: HDAC6 human recombinant (Homo sapiens, UniProt Q9UBN7)
- Construct: purchased Calbiochem 382180
- Sequence (Q9UBN7 whole entry): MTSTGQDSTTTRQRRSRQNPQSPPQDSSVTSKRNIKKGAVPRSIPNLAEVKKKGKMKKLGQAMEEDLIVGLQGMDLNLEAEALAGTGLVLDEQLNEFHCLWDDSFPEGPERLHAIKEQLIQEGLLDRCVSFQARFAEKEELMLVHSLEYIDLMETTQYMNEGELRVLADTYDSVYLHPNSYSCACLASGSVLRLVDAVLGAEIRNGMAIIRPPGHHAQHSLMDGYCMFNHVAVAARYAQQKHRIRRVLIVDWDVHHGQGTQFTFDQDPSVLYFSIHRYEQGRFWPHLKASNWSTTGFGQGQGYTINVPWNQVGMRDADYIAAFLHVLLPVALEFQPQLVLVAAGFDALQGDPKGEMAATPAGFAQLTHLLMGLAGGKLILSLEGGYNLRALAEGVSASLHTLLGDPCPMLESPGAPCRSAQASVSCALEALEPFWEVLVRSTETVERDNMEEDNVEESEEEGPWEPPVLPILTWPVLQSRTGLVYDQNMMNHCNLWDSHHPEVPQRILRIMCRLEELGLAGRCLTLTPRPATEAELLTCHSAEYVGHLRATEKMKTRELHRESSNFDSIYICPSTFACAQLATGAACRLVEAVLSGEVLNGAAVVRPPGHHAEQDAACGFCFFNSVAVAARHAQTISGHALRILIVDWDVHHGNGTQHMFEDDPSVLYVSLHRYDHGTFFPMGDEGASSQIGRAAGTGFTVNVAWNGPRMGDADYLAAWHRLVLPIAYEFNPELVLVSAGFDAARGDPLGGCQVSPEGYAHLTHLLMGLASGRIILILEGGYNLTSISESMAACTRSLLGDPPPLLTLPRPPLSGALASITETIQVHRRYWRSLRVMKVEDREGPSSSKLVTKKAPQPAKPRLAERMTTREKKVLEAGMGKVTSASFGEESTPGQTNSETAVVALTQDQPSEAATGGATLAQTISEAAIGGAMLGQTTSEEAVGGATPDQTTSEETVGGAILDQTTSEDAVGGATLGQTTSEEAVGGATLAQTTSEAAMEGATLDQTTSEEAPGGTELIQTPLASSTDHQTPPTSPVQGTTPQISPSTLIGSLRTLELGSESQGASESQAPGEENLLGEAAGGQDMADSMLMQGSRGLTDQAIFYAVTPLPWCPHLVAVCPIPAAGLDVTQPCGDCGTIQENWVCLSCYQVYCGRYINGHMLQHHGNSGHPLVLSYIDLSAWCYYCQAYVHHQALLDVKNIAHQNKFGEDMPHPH
- protocol_details: HDAC enzyme activity inhibition (in vitro), HDAC6 assay
- Assay type: biochemical
- details: samples at 0.1, 1, 10, 100 and 1000 nM; 37° C. 60 minutes; fluorescence Ex 390, Em 460; read-out: HDAC6 IC50
test_readout: IC50 (nM)

Study these solved cases before continuing.
query_smiles	assay_value
O=c1oc2cc(C3CCN(C4COC4)CC3)c(F)cc2n1Cc1ccc(-c2nnc(C(F)F)o2)cn1	44
CC(=O)N1CCC(n2c(=O)n(Cc3ccc(-c4nnc(C(F)F)o4)cn3)c3cc(F)c(F)cc32)CC1	31
CN(C)CCn1c(=O)n(Cc2ccc(-c3nnc(C(F)F)o3)cc2F)c2ccccc21	131
COCCN1Cc2ccccc2N(Cc2ccc(-c3nnc(C(F)F)o3)cc2)C1=O	444
Cc1ccc(-c2cc3c(cc2F)n(Cc2ccc(-c4nnc(C(F)F)o4)cn2)c(=O)n3C)o1	71
Cn1ccc2cc(-c3cc4c(cc3F)n(Cc3ccc(-c5nnc(C(F)F)o5)cn3)c(=O)n4C)ccc21	32
O=c1sc2cc(-c3cnn(C4CCN(CC(F)(F)F)CC4)c3)ccc2n1Cc1ccc(-c2nnc(C(F)F)o2)cn1	84
O=c1n(Cc2ccc(-c3nnc(C(F)F)o3)cn2)c2cc(F)c(-c3cccnc3)cc2n1CC1CCN(C2COC2)CC1	7

[A] O=c1n(Cc2ccc(-c3nnc(C(F)F)o3)cn2)c2cc(F)c(-c3ccncc3)cc2n1[C@H]1CCCN(C2COC2)C1
[B] O=c1sc2cc(-c3cccnc3)ccc2n1Cc1ccc(-c2nnc(C(F)F)o2)cn1
[in] Compare IC50: is it lower for A or for B ? Use the label to indicate which entry you chose.
[out] B
(B: 9 nM, A: 13 nM)

[I] O=c1n(Cc2ccc(-c3nnc(C(F)F)o3)cn2)c2cc(F)ccc2n1C1CCN(C2COC2)CC1
[II] Cn1c(=O)n(Cc2ccc(-c3nnc(C(F)F)o3)cn2)c2ccc(-c3ccc(S(C)(=O)=O)cc3)cc21
[in] Lowest IC50? choose I or II Please identify the chosen entry by its label.
[out] II

[A] O=c1n(Cc2ccc(-c3nnc(C(F)F)o3)cn2)c2cc(F)ccc2n1C1CCN(C2CCC3(CC2)OCCO3)CC1
[B] CC(C)(C)C(=O)Nc1ccc2c(c1)n(Cc1ccccc1)c(=O)n2Cc1ccc(-c2nnc(C(F)F)o2)cn1
[in] # returns the entry with the larger IC50; inputs A and B Your answer should be the label of the entry you select.
[out] B
(B: 173 nM, A: 28 nM)

[A] CN1CCC(n2c(=O)n(Cc3ccc(-c4nnc(C(F)F)o4)cc3F)c3cc(F)c(-c4ccco4)cc32)CC1
[B] CS(=O)(=O)N1CCC(n2c(=O)n(Cc3ccc(-c4nnc(C(F)F)o4)cn3)c3ccc(Cl)cc32)CC1
[C] COc1ccc(-c2ccc3c(c2)n(C2CCN(C)CC2)c(=O)n3Cc2ccc(-c3nnc(C(F)F)o3)cc2F)cn1
[in] Arrange the 3 compounds by rising IC50, starting with the smallest. A complete answer lists every label in the requested sequence.
[out] B, C, A

[1] CN1CCC(n2c(=O)n(Cc3ccc(-c4nnc(C(F)F)o4)cc3F)c3ccc(-c4ccco4)cc32)CC1
[2] CN1CCC(n2c(=O)n(Cc3ccc(-c4nnc(C(F)F)o4)cn3)c3ccccc32)CC1
[3] CC(C)N1CCN(c2cc(-c3cc4oc(=O)n(Cc5ccc(-c6nnc(C(F)F)o6)cn5)c4cc3F)ccn2)CC1
[4] O=c1n(Cc2ccc(-c3nnc(C(F)F)o3)cn2)c2cc(F)c(-c3cccc4[nH]ccc34)cc2n1C1CCN(CC(F)(F)C(F)F)CC1
[5] O=c1oc2cc(-c3cccc4[nH]ccc34)c(F)cc2n1Cc1ccc(-c2nnc(C(F)F)o2)cn1
[in] Put these in order: smallest IC50 first, largest last. Response format: the labels, sorted as the prompt asks.
[out] 5, 3, 1, 4, 2
(5: 15 nM, 3: 33 nM, 1: 54 nM, 4: 94 nM, 2: 178 nM)

[1] O=c1n(Cc2ccc(-c3nnc(C(F)F)o3)cn2)c2cc(F)c(-c3cccnc3)cc2n1C1CCN(CC(F)(F)F)CC1
[2] CN1CCC(n2c(=O)n(Cc3ccc(-c4nnc(C(F)F)o4)cc3F)c3cc(F)c(-c4ccoc4)cc32)CC1
[3] O=c1oc2cc(C3CCNCC3)ccc2n1Cc1ccc(-c2nnc(C(F)F)o2)cn1
[in] Rank order required: IC50, descending. Give the labels in the order specified.
[out] 3, 2, 1
(3: 456 nM, 2: 77 nM, 1: 27 nM)

[a] O=c1sc2cc(-c3cnn(C4CCN(CC5(F)CC5)CC4)c3)ccc2n1Cc1ccc(-c2nnc(C(F)F)o2)cn1
[b] Cn1c(=O)n(Cc2ccc(-c3nnc(C(F)F)o3)cn2)c2cc(F)c(Br)cc21
[c] CC(=O)N1CCC(n2c(=O)n(Cc3ccc(-c4nnc(C(F)F)o4)cn3)c3ncccc32)CC1
[in] I would appreciate it if you could sort these 3 compounds by IC50, starting from the smallest number. Kindly provide the labels arranged according to the requested ordering.
[out] b, a, c
